# TARGET OR TEST SYSTEM: Disintegrin and metalloproteinase domain-containing protein 17 (Homo sapiens)
# ASSAY REMARKS: inhibition of ADAM17 peptide cleavage – biochemical, QFRET, primary screen (AID 720648)
# MEASUREMENT SETUP: recombinant ADAM17, EDANS/DABCYL FRET peptide cleavage; at 6.95 µM
About 3,100 (0.84%) of roughly 370,000 compounds were called active.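 Rule for the calls: active = inhibition above the mean of compounds lying between control limits plus 3 SD, set per campaign (cut at about 8.5% in these data); inactive = the rest.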 Only a selection was taken, and actives are over-represented in it overall.
Possible outcomes: active, inactive

- COC(=O)c1cccc(Cn2ccc3ccc(-c4ccc5ccn(C(=O)C6CCCCC6)c5c4)cc32)c1: inactive
- Cc1ccc(C)c(-n2c(SCC(=O)O)nc3sc4c(c3c2=O)CCCC4)c1: inactive
- Cc1ccc(Cn2cc(CN3[C@@H](C)COc4cc(Br)ccc4S3(=O)=O)nn2)cc1: inactive
- Cc1nnc(SCC(=O)Nn2cnnc2)s1: active
- C[C@H](NC(=O)c1nc[nH]c1C(=O)NCC(=O)OC(C)(C)C)C(=O)OCc1ccccc1: inactive
- Cc1ccc(C(=O)NCC(=O)O)s1: inactive
- COc1ccc(Cn2cc(CN3[C@@H](CC(C)C)COc4cc(Br)ccc4S3(=O)=O)nn2)cc1: inactive
- Cc1nnc(SCC(=O)NC2CCCC2)s1: inactive
- C#CCN(C[C@@H]1[C@@H](OC(=O)NC2CC2)[C@@H](OC(=O)NC2CC2)Cn2c(=O)ccc(=O)n21)S(=O)(=O)c1ccc(C)cc1: inactive
- CC(=O)c1ccc(Cc2ncc(C(F)(F)F)cc2Cl)s1: inactive
- CCn1c(SCC(C)=O)nc2sc3c(c2c1=O)CCCC3: inactive
- CC1CCN(c2ccc(C(=O)O)cc2NS(=O)(=O)c2ccc(Br)s2)CC1: inactive
- C=CCN1C(C(=O)OC)CN(Cc2cn(Cc3ccccc3)nn2)CCS1(=O)=O (stereo unspecified): inactive
- C[C@H](CO)N1C[C@H](C)[C@@H](CN(C)C(=O)C2CCCCC2)OCc2cnnn2CCCC1=O: inactive
- COC(=O)C1CN(CCc2ccccc2)CCS(=O)(=O)N1Cc1ccc(F)cc1 (stereo unspecified): inactive
- CC(C)(C)OC(=O)N1CCC(NC(=O)c2[nH]cnc2C(=O)N[C@@H](Cc2ccccc2)C(=O)OCc2ccccc2)CC1: active
- CCOc1ccc(CCNC(=O)COC(=O)C2CCN(c3ccc(C(F)(F)F)cn3)CC2)cc1OCC: inactive
- COc1ccc2c(C(C)c3ccc(N)cc3)cn(C)c2c1 (stereo unspecified): inactive
- COC(=O)N(C)C[C@@H]1OCc2cnnn2CCCC(=O)N([C@@H](C)CO)C[C@@H]1C: active
- Nn1c(SCC(=O)Nc2cccc3ccccc23)nnc1-c1cc(-c2ccc(F)cc2)n[nH]1: inactive
- COc1ccc(Cl)cc1C=CC=NNC(=O)c1ccncc1: inactive
- Cc1ccc(OCCOCCOc2ccc(Br)cc2/C=N\NC(=O)c2ccncc2)cc1: active
- CCOC(=O)C(=O)N(Cc1ccccc1)c1ccccc1C(=O)Nc1cc(OC)ccc1OC: inactive
- O=C(CN1CCCc2ccccc21)NCc1ccc(F)cc1: inactive
- COc1ccc(C(CNC(=O)c2cc(S(=O)(=O)Nc3cccc(C)c3)ccc2C)N2CCCC2)cc1 (stereo unspecified): active
- O=C(Cc1ncc(C(F)(F)F)cc1Cl)Nc1cccc(Br)c1: active
- O=C1CC(c2ccc3c(c2)OCO3)N=C2N(CC3CC3)C/C(=C/c3ccccc3)N12 (stereo unspecified): inactive
- COc1ccc(C(CNC(=O)c2ccc(S(=O)(=O)Nc3ccccc3C)cc2)N2CCOCC2)cc1 (stereo unspecified): inactive
- COc1cc(NC(=O)C2CCCN(S(=O)(=O)c3ccc(C(C)(C)C)cc3)C2)cc(OC)c1 (stereo unspecified): inactive
- Cc1ccc(OCCOc2cccc(/C=N/NC(N)=O)c2)cc1: inactive
- O=C(CCl)NC1CCCCN(Cc2cccc(C(F)(F)F)c2)C1=O (stereo unspecified): inactive
- FC(F)(F)c1cccc(Cn2ccc3ccc(-c4ccc5ccn(Cc6ccccc6)c5c4)cc32)c1: inactive
- O=C(OC12CCCN(C1)/C(=C/c1cccnc1)C2)C1CCCC1 (stereo unspecified): inactive
- COc1ccc(/C=C2\CC3(OC(C)=O)CCCN2C3)cc1 (stereo unspecified): inactive
- CCCCn1ccnc1C(=O)c1cccc(S(=O)(=O)N2c3ccccc3CC2C)c1 (stereo unspecified): active
- Cc1ccc(C(=O)Nc2ccc(C)c(S(=O)(=O)N(C)C)c2)s1: active
- COc1ccc(CN2C(=O)N3Cc4cc(OC)ccc4C3CS2(=O)=O)cc1 (stereo unspecified): inactive
- CCSc1nnc(SCC(=O)NNC(=O)c2ccccc2F)s1: inactive
- O=C(CCCCCN1C(=O)C2C3C=CC(C3)C2C1=O)Nc1ccccc1 (stereo unspecified): inactive
- COc1ccc(NS(=O)(=O)c2ccc(C)c(C(=O)NCC(c3cccs3)N3CCOCC3)c2)cc1 (stereo unspecified): inactive
- O=C(COC(=O)c1ccc2c(c1)OCCO2)NCc1ccccc1Cl: inactive

Where these numbers come from: PubChem BioAssay AID720648
